# credit: PubChem BioAssay

test-protocol: inhibitors of TNFa-induced NFkB p65 translocation, primary screen, imaging, HUVEC, MLSMR starter and 10KST1 sets (AID 438);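 also: compound added about 3h40 before a 20 min TNFalpha stimulation; signal is the nuclear over cytoplasmic p65 intensity ratio per well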
measurement-setup: HUVEC TNFa-induced p65 nuclear translocation; at 2 µM, stronger effect = higher value, 0% TNFa-plus-vehicle, 100% no-TNFa wells
readout: inhibition (%)
# value in %; strip the unit string

compound	result-units	inhibition
CC(=O)C1=C(N2CCCCC2)CCC1=O	%	2.3

Turning now to a further record.
I would be grateful if you could share the reported inhibition for COc1ccc(NC(=O)Nc2ccc(N3CCCC3=O)cc2)cc1OC .
4

* * *

test-protocol: endothelial E-selectin expression blockers – imaging, HUVEC, immunofluorescence, MLSMR starter and 10KST1 sets, primary screen (AID 487);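 also: 100% = median nuclei count of all wells on the same plate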
measurement-setup: HUVEC TNFalpha-induced E-selectin immunofluorescence imaging, at 2 µM; measured here: cell number, toxicity
Parameter: nuclei count. Scope: all listed entries.
# value in %; strip the unit string

compound	result-units	nuclei count
CC(C)(C)C(=O)Cn1c(=N)n(Cc2ccccc2)c2ccccc21	%	96

I would be grateful if you could share the reported nuclei count for CCCCN1CN(S(=O)(=O)c2cccs2)c2nc3ccccc3nc21 .
91.6

Then what about the compound CCn1c(SCC(=O)NCc2ccco2)nc2c(c1=O)SC(C)C2 (centres undefined) ?
115

Then what about the compound Cc1cc(NC(=O)CCCC(=O)Nc2ccc(F)cc2)no1 ?
107
